Reference source: PubChem BioAssay (NCI)

- System: MDA-MB-231 breast
- protocolSummary: NCI tumour cell line growth inhibition, 48 h
reportedMetric: TGI

# compound, reportedMetric, result
data = [
    ("COc1cc2c(cc1OCCCCCN1CCN(CCCCCOc3cc4c(cc3OC)C(=O)C3CCC[C@H]3C=N4)CC1)N=C[C@@H]1CCCC1C2=O (some centres undefined)", "TGI", "> 100 µM"),
    ("CCCCCCCCCCCCCCCC(=O)Nc1ccn(C2CC(OP(=O)(O)OCC3OC(n4cc(F)c(=O)[nH]c4=O)CC3OC(C)=O)C(CO)O2)c(=O)n1 (centres undefined)", "TGI", "> 61.5 µM"),
    ("CO/C(=N\\N=C\\c1ccccc1F)c1ccncc1", "TGI", "> 10 µM"),
]

Now for a further compound.
Request: What TGI value was documented for this compound, CCCCNC(=O)OCCN=C1c2ccccc2C(Br)C(Br)c2ccccc21 (centres undefined) ?
Response: > 100 µM

---

The following compounds are shown together with reported TGI values.
- Tested on: EKVX NSCLC
- protocolSummary: NCI tumour cell line growth inhibition, 48 h

Worked examples, 5 compounds total:
# compound, TGI
data = [
    ("COC(=O)C(=O)C(CC(=O)Nc1c(C)cccc1C)C(=O)OC (stereo not given)", "> 100 µM"),
    ("[N-]=[N+]=Nc1cccc(-c2n[nH]c(Cl)cc2=O)c1", "> 100 µM"),
    ("CCOC(=O)/C=C/C1OC(C)(C)OC1/C=C/C(=O)OCC (stereo not given)", "94.9 µM"),
    ("CC(C)C(=O)NCC[C@@H](CNC(=O)OC(C)(C)C)NC(=O)OC(C)(C)C", "> 100 µM"),
    ("CCOc1ccccc1C(=O)/C=C/c1cc2ccccc2[nH]c1=O", "1.99 µM"),
]

Request: What TGI value was documented for this compound, CC(=O)Nc1ccc(C(=O)NN2C(=O)C(Cl)C2c2cc(Br)cc(Br)c2O)cc1 (stereo not given) ?
Response: > 100 µM

Request: What TGI value was documented for this compound, O=Cc1cn(Cc2ccccc2)c2ccccc12 ?
Response: > 81 µM

Request: What TGI value was documented for this compound, CCCCNC(=O)OCCN=C1c2ccccc2C(Br)C(Br)c2ccccc21 (stereo not given) ?
Response: > 100 µM

Request: What TGI value was documented for this compound, COc1ccc2c(c1)C(=O)C1(C2)[C@H](c2ccccc2)C2C(=O)c3cc(OC)ccc3C2[C@H]1c1ccccc1 (stereo not given in full) ?
Response: > 100 µM

---

- Tested on: IGROV1 ovarian
- protocolSummary: NCI tumour cell line growth inhibition, 48 h
The following molecules are shown together with reported TGI values.

# molecule, studyTarget, TGI
data = [
    ("CC1(C)OCC(C2OC(OC(=O)c3ccc(C(F)(F)F)cc3)C3OC(C)(C)OC23)O1 (stereo not given)", "IGROV1 ovarian", "> 77.5 µM"),
    ("CCN(CC)CCn1ncc2c(N)ncnc21", "IGROV1 ovarian", "> 100 µM"),
    ("COc1ccc(C2NC(=O)c3cc4c(cc3N2)OCO4)cc1 (stereo not given)", "IGROV1 ovarian", "> 100 µM"),
    ("CCOC(=O)c1cc(C)n(CN(CCO)Cn2nc(C(=O)OCC)cc2C)n1", "IGROV1 ovarian", "> 100 µM"),
]

Now for a further molecule.
Request: Report TGI for CC(=O)OCc1cc(=O)n2c([nH]c3ccccc32)c1C#N tested on IGROV1 ovarian.
Response: > 100 µM

---

- Test system: COLO 205 colon
- protocolSummary: NCI tumour cell line growth inhibition, 48 h
reportedMetric: TGI

# compound, TGI
records = [
    ("CCCCCCCC/C(=C\\C1=C(C)C(=O)C(OC)=C(OC)C1=O)C(=O)O", "> 100 µM"),
]

Request: What TGI value was documented for this compound, CN(C)N=Nc1cn[nH]c1C(N)=O ?
Response: > 100 µM

Request: What TGI value was documented for this compound, CCOC(=O)c1ccc(O)cc1 ?
Response: > 100 µM

Request: What TGI value was documented for this compound, COc1ccc2c(c1)C(=O)C1(C2)[C@H](c2ccccc2)C2C(=O)c3cc(OC)ccc3C2[C@H]1c1ccccc1 (stereo partly specified) ?
Response: > 100 µM

Request: What TGI value was documented for this compound, COc1ccc(/C=C(/C(=O)N2CCCCC2)c2cc(OC)c(OC)c(OC)c2)cc1 ?
Response: 4.9 µM

Request: What TGI value was documented for this compound, CCOP(=O)(OCC)C(C)(C)OC(=O)NC(F)(F)F ?
Response: > 100 µM

---

- Tested on: IGROV1 ovarian
- protocolSummary: NCI tumour cell line growth inhibition, 48 h
Where a SMILES comes first, the peptide text is derived from it.
The following compounds are shown together with reported TGI values.

Worked examples, 3 compounds total:
# compound, studyTarget, TGI
records = [
    ("CC1C2CC(CC23OCC(CCl)O3)C1(C)C (configuration not stated)", "IGROV1 ovarian", "> 100 µM"),
    ("COC(=O)C(C)NP(=O)(OCc1ccc(Cn2cnc3c(N)ncnc32)cc1)Oc1ccccc1 (configuration not stated)", "IGROV1 ovarian", "> 100 µM"),
    ("COc1ccc(/C=C/C(=O)c2sc(Nc3ccc([N+](=O)[O-])cc3)nc2C)cc1", "IGROV1 ovarian", "> 100 µM"),
]

Request: What TGI value was documented for this compound, CN1CCC(CN2c3ccccc3Sc3ccccc32)C1 (configuration not stated) ?
Response: 31.6 µM

Request: What TGI value was documented for this compound, C=C1C(=O)C23CC1CCC2C12CO[C@H](O)[C@H]1C(C)(C)[C@H](OC(C)=O)C[C@H]2OC3=O (some centres not stated) ?
Response: > 100 µM

Request: What TGI value was documented for this compound, CCC(C)C1NC(=O)C(CCCCN)NC(=O)C(CCCCN)NC(=O)C(CC(C)C)NC(=O)C(CCCCN)NC(=O)C(C(C)CC)NC(=O)C(C(C)C)NC(=O)C(C(C)CC)NC(=O)C(CCCCN)NC(=O)C(CCCCN)NC(=O)C(C)NC(=O)C(CCCCN)NC(=O)C(CC(C)C)NC1=O (configuration not stated) (cyclo(AKKIVIKLKKILK); configuration not given here) ?
Response: 6.18 µM

Request: What TGI value was documented for this compound, CC(=O)OC1COC(n2nc(N)nc2C)C(OC(C)=O)C1OC(C)=O (configuration not stated) ?
Response: > 100 µM

---

- Tested on: COLO 205 colon
- protocolSummary: NCI tumour cell line growth inhibition, 48 h
reportedMetric: TGI

Worked examples, 7 molecules total:
# molecule, TGI
data = [
    ("Nc1nc2c3c(ncn3CC(O)CO2)n1 (stereo not drawn)", "> 100 µM"),
    ("[N-]=[N+]=Nc1cccc(-c2n[nH]c(Cl)cc2=O)c1", "> 100 µM"),
    ("Cc1cc(S(=O)(=O)N/C(=C(\\C#N)C(=O)c2ccccc2)[n+]2ccc(N(C)C)cc2)c([S-])cc1Cl", "> 100 µM"),
    ("COC(=O)C(C)NP(=O)(OCc1ccc(Cn2cnc3c(N)ncnc32)cc1)Oc1ccccc1 (stereo not drawn)", "> 100 µM"),
    ("S=C1Nc2cnc3ccccc3c2SC1c1ccccc1 (stereo not drawn)", "> 100 µM"),
    ("Cc1cccc(-n2cnc3cc(C(=O)N4CCCCC4)ccc32)c1", "> 100 µM"),
    ("COc1ccc(N(CN2C(=O)CCC2OC)C(C)=O)cc1 (stereo not drawn)", "> 100 µM"),
]

Request: What TGI value was documented for this molecule, O=C1c2ccccc2S(=O)(=O)N1CSC(=S)N1CCOCC1 ?
Response: > 100 µM

---

The following compounds are shown together with reported TGI values.
- System: LOX IMVI melanoma
- protocolSummary: NCI tumour cell line growth inhibition, 48 h

# compound, TGI
rows = [
    ("CC1(C)OCC[C@@H]1[Si](C)(C)C", "> 100 µM"),
]

Request: What TGI value was documented for this compound, CN(C)CCNS(=O)(=O)N(C)C ?
Response: > 100 µM

Request: What TGI value was documented for this compound, CCCCCCCCCCCCCCCC(=O)Nc1ccn(C2CC(OP(=O)(O)OCC3OC(n4cc(F)c(=O)[nH]c4=O)CC3OC(C)=O)C(CO)O2)c(=O)n1 (stereo unspecified) ?
Response: > 100 µM

Request: What TGI value was documented for this compound, Cc1cccc(-n2cnc3cc(C(=O)N4CCCCC4)ccc32)c1 ?
Response: > 100 µM

Request: What TGI value was documented for this compound, CC(=O)OC1COC(n2nc(N)nc2C)C(OC(C)=O)C1OC(C)=O (stereo unspecified) ?
Response: > 100 µM

Request: What TGI value was documented for this compound, C#CC#CC#CC#CC#CC#CC#CC#CC[C@@H]1OC[C@H](COC(=O)O[C@@H](C(=O)O[C@H]2C[C@@]3(O)[C@@H](OC(=O)c4ccccc4)[C@@H]4[C@]5(OC(C)=O)CO[C@@H]5C[C@H](O)[C@@]4(C)C(=O)[C@H](OC(C)=O)C(=C2C)C3(C)C)[C@@H](NC(=O)c2ccccc2)c2ccccc2)O1 ?
Response: > 25 µM
